- Assay target: FBP21-WW2 (Homo sapiens, UniProt O75554)
- Construct: with regard to FBP21’s WW domains by ITC; GST (N); made in house; host or cells: E. coli BL21 DE3 (pGEX4T1)
- Sequence (O75554 163-196 limits assumed): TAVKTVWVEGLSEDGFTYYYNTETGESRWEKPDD
- Test method notes: Isothermal titration calorimetry (ITC) with FBP21-WW2
- Type: binding
- Condition details: PBS pH 7.4, 25 °C, protein in cell 250 µM, peptide in syringe 5 mM, GST-tagged FBP21-WW2
Ends that are not written are not given here.
// values below are reported Kd
Record the result as number plus unit.

Query: I have this substance here, YPRPPGPPP [YPRPPGPPP] , and I need its recorded Kd.
Reply: 68.5 µM

Query: Moving on to the next substance: Ac-WPPPPRVPR [WPPPPRVPR]
Reply: 87 µM

Consider the record given below.
Query: I have this substance here, YPRPTNPRP [YPRPTNPRP] , and I need its recorded Kd.
Reply: 270 µM
